Values from paper PMC9488889

- target.or.test.system: C3b (Homo sapiens, UniProt P01024)
- Construct: the α’NT, MG6^α−8, anchor, and C-terminal complement (CTC) domains of the α-chain that are all shared between C3c and C3b; purchased Complement Technology (Tyler, TX, USA)
- Sequence (P01024 23-667 limits assumed): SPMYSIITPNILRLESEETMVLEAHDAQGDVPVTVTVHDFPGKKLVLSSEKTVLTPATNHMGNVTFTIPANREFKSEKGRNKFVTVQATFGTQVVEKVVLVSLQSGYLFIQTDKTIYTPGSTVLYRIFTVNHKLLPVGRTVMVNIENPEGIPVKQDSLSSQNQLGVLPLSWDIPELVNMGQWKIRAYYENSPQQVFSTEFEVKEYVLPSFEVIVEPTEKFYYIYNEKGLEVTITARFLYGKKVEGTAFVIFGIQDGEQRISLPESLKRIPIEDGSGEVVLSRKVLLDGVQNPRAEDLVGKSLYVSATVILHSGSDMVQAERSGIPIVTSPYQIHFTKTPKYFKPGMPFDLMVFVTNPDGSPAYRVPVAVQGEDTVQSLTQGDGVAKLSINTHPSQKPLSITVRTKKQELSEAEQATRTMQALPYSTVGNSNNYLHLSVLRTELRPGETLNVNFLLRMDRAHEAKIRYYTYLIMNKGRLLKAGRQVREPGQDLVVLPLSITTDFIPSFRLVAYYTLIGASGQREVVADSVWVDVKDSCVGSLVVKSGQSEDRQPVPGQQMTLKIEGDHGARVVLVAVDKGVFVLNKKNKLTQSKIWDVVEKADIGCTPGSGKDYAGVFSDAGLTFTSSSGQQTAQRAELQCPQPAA
- Sequence (P01024 749-1663 limits assumed): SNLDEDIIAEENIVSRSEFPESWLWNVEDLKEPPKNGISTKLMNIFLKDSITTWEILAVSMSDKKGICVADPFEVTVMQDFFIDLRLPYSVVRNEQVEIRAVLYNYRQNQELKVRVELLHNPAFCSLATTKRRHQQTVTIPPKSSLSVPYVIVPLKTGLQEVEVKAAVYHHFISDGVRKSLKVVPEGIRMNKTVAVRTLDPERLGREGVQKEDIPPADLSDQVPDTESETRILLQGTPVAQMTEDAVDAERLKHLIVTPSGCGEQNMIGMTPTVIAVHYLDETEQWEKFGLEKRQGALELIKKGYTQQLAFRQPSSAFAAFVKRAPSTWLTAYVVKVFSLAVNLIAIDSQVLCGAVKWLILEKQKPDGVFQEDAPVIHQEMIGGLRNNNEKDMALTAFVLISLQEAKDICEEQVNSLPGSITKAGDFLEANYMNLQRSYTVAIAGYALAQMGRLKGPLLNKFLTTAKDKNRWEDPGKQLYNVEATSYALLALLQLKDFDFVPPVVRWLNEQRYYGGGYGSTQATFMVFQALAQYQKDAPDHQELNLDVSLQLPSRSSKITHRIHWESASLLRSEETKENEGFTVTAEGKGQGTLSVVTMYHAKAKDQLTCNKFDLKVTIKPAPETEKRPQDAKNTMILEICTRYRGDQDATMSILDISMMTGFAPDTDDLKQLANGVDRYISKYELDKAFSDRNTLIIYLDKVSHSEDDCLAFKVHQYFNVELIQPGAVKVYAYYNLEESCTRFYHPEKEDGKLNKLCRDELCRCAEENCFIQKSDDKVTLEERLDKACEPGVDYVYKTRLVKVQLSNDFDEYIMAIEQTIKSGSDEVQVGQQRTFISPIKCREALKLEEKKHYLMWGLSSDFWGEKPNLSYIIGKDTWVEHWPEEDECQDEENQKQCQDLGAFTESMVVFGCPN
- assay.details: SPR kinetic binding studies on immobilized C3b
- assay.conditions: pH 7.4, read-out: ka
Bridge positions count the residues as written; N and C are the ends. Square brackets hold non-standard residues; d marks the D form. Peptide text beside a SMILES is read from it. Trp(1-Me) = Cn1cc(C[C@H](N)C(=O)O)c2ccccc21; NMeI = CC[C@H](C)[C@H](NC)C(=O)O; Sar = CNCC(=O)O
measured.property: kon (M⁻¹ s⁻¹)
Reply numerically in M⁻¹ s⁻¹, unit not repeated.

Problem: For the compound shown here, CC[C@H](C)[C@H](NC(=O)[C@H](N)Cc1ccc(O)cc1)C(=O)N[C@H]1CSSC[C@@H](C(=O)N[C@@H](C)C(N)=O)NC(=O)[C@H](CCCNC(=N)N)NC(=O)[C@H](Cc2c[nH]cn2)NC(=O)[C@H](C)NC(=O)CN(C)C(=O)[C@H](Cc2c[nH]c3ccccc23)NC(=O)[C@H](CC(=O)O)NC(=O)[C@H](CCC(N)=O)NC(=O)[C@H](Cc2cn(C)c3ccccc23)NC(=O)[C@H](C(C)C)NC1=O [Cp40 mI14A] (H-[dY]ICV[Trp(1-Me)]QDW[Sar]AHRCA-NH2; disulfide 3-13) , give the reported kon.
Result: 3e+06

Problem: For the compound shown here, CC[C@H](C)[C@H](NC(=O)[C@H](N)Cc1ccc(O)cc1)C(=O)N[C@H]1CSSC[C@@H](C(=O)N(C)[C@H](C(N)=O)[C@@H](C)CC)NC(=O)[C@H](CO)NC(=O)[C@H](Cc2c[nH]cn2)NC(=O)[C@H](C)NC(=O)CN(C)C(=O)[C@H](Cc2c[nH]c3ccccc23)NC(=O)[C@H](CC(=O)O)NC(=O)[C@H](CCC(N)=O)NC(=O)[C@H](Cc2cn(C)c3ccccc23)NC(=O)[C@H](C(C)C)NC1=O [Cp40 R12S] (H-[dY]ICV[Trp(1-Me)]QDW[Sar]AHSC[NMeI]-NH2; disulfide 3-13) , give the reported kon.
Result: 200000
